target: KAT2A (Homo sapiens, UniProt Q92830); experiment: KAT2A degradation, Western Blot (Jess), MOLM-13 cells; type: cell-based; design: degrader, Western blot; details: MOLM-13 cells, KAT2A, 24 h, Western Blot, vs DMSO; read-out: KAT2A MOLM-13 DC50
Sequence (Q92830 whole entry): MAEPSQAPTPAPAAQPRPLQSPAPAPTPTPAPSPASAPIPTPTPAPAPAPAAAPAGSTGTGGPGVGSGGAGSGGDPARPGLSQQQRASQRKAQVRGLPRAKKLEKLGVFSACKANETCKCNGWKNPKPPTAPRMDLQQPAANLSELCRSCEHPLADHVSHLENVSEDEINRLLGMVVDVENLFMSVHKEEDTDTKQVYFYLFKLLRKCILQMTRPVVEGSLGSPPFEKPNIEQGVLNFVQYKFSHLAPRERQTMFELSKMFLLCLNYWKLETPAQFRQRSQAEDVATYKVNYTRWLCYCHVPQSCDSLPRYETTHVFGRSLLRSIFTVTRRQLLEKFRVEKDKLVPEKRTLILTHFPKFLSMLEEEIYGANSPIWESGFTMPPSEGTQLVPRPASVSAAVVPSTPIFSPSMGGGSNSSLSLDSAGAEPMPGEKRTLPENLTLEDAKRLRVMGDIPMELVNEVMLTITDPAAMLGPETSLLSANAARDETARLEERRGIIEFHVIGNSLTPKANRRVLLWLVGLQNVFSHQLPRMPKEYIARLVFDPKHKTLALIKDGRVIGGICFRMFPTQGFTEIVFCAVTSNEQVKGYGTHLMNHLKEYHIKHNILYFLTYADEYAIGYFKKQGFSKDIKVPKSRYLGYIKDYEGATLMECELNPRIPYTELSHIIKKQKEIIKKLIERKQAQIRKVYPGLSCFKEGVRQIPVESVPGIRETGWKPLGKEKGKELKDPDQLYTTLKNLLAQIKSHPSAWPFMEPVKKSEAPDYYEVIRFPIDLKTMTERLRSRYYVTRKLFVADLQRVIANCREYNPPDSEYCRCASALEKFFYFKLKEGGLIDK
We begin with a simple list: items and their reported DC50.
quantity-name: DC50

compound="CN1C[C@H](Nc2cnn(C)c(=O)c2Br)C[C@H](c2ccc(CN3CCN(Cc4cccc5c4C(=O)N(C4CCC(=O)NC4=O)C5=O)CC3)cc2)C1 (stereo partly drawn) [Compound 58]" value="1 to 30 nM"
compound="CN1C[C@H](Nc2cnn(C)c(=O)c2Br)C[C@H](c2ccc(CN3CCN(c4ccc(N5CCC(=O)NC5=O)cc4)CC3)cc2)C1 [Compound 78]" value="> 30 nM"
compound="CN1C[C@H](Nc2cnn(C)c(=O)c2Cl)C[C@H](c2ccc(CN3CCN(c4cccc(C5CCC(=O)NC5=O)c4)CC3)cc2)C1 (stereo partly drawn) [Compound 162]" value="< 1 nM"

---

biological target: UniProtKB Q92830; test: KAT2A degradation, Western Blot (Jess), NCI-H1048 cells; type: cell-based; design: degrader, Western blot (Jess); conditions: NCI-H1048 cells, KAT2A, 24 h, Western Blot, vs DMSO; read-out: KAT2A NCI-H1048 DC50
DC50 by entry:
quantity-name: DC50

compound="CN1C[C@H](Nc2cnn(C)c(=O)c2Cl)C[C@H](c2ccc(C(=O)N3CCC4(CCC(c5ccc(C6CCC(=O)NC6=O)cc5)CC4)CC3)cc2)C1 (some centres unmarked)" quantity_name=DC50 value="< 1 nM"
compound="CN1C[C@H](Nc2cnn(C)c(=O)c2Br)C[C@H](c2ccc(C(=O)N3CCN(c4cccc5c4oc(=O)n5C4CCC(=O)NC4=O)CC3)cc2)C1 (some centres unmarked)" quantity_name=DC50 value="< 1 nM"
compound="CN1C[C@H](Nc2cnn(C)c(=O)c2Cl)C[C@H](c2ccc(C(=O)N3CCC4(CC3)CN(c3ccc(C5CCC(=O)NC5=O)c(F)c3)C4)cc2)C1 (some centres unmarked)" quantity_name=DC50 value="< 1 nM"
compound="CN1C[C@H](Nc2cnn(C)c(=O)c2Cl)C[C@H](c2ccc(C(=O)N3CC(c4cccc(C5CCC(=O)NC5=O)c4)C3)cc2)C1 (some centres unmarked)" quantity_name=DC50 value="1 to 30 nM"
compound="CN1C[C@H](Nc2nc3cc[nH]c3c(=O)n2C)C[C@H](c2ccc(C(=O)N3CCC4(CC3)CCN(c3ccc(C5CCC(=O)NC5=O)cc3)CC4)cc2)C1 (some centres unmarked)" quantity_name=DC50 value="< 1 nM"
compound="CN1C[C@H](Nc2cnn(C)c(=O)c2Cl)C[C@H](c2ccc(C(=O)N3CCC4(CC3)CCN(c3ccc(OC5CCC(=O)NC5=O)cn3)CC4)cc2)C1 (some centres unmarked)" quantity_name=DC50 value="< 1 nM"
compound="Cc1cc(N2CCC3(CCN(C(=O)c4ccc([C@H]5C[C@@H](Nc6cnn(C)c(=O)c6Cl)CN(C)C5)cc4)CC3)CC2)ncc1C1CCC(=O)NC1=O (some centres unmarked)" quantity_name=DC50 value="< 1 nM"
compound="CN1C[C@H](Nc2cnn(C)c(=O)c2Cl)C[C@H](c2ccc(C(=O)N3CCC4(CC3)CCN(c3ccc(C5CCC(=O)NC5=O)c(F)c3)CC4)cc2)C1 (some centres unmarked) [Compound 228]" quantity_name=DC50 value="< 1 nM"
compound="Cc1cc(C2CCC(=O)NC2=O)ccc1N1CCC2(CCN(C(=O)c3ccc([C@H]4C[C@@H](Nc5cnn(C)c(=O)c5Cl)CN(C)C4)cc3)CC2)CC1 (some centres unmarked)" quantity_name=DC50 value="< 1 nM"
compound="CN1C[C@H](Nc2cnn(C)c(=O)c2Br)C[C@H](c2ccc(C(=O)N3CCC4(CC3)CCN(c3ccc(C5CCC(=O)NC5=O)c(C(F)(F)F)c3)CC4)cc2)C1 (some centres unmarked)" quantity_name=DC50 value="> 30 nM"
compound="CN1C[C@H](Nc2cnn(C)c(=O)c2Br)C[C@H](c2ccc(CN3CCN(c4cc5c(cc4F)C(=O)N(C4CCC(=O)NC4=O)C5=O)CC3)cc2)C1 (some centres unmarked)" quantity_name=DC50 value="< 1 nM"
